meta.source: ChEMBL document CHEMBL2429835

- System: Mycobacterium tuberculosis
- TEST SUMMARY: Antimycobacterial activity against kanamycin-resistant Mycobacterium tuberculosis ATCC 35827
- Format: functional
Note to self: MIC90 under 0.3 µg/mL means True, ties and anything higher get False.

# example entries with known answers
CCOC(=O)c1c(-c2ccccc2)c2cc(Cl)ccc2oc1=O : False
CO[C@H]1/C=C/O[C@@]2(C)Oc3c(C)c(O)c4c(O)c(c(/C=N/N5CCN(C)CC5)c(O)c4c3C2=O)NC(=O)/C(C)=C\C=C\[C@H](C)[C@H](O)[C@@H](C)[C@@H](O)[C@@H](C)[C@H](OC(C)=O)[C@@H]1C [RIFAMPIN] : True

Just wondering, is MIC90 of O=[N+]([O-])c1cn2c(n1)OC[C@@H](OCc1ccc(OC(F)(F)F)cc1)C2 [PRETOMANID] below 0.3 µg/mL?
False

Just wondering, is MIC90 of NC[C@H]1O[C@H](O[C@H]2[C@H](O)[C@@H](O[C@H]3O[C@H](CO)[C@@H](O)[C@H](N)[C@H]3O)[C@H](N)C[C@@H]2N)[C@H](O)[C@@H](O)[C@@H]1O [KANAMYCIN] below 0.3 µg/mL?
False

Just wondering, is MIC90 of N[C@@H]1CONC1=O [CYCLOSERINE] below 0.3 µg/mL?
False

Just wondering, is MIC90 of `CCOC(=O)c1c(-c2ccccc2)c2ccc(Cl)cc2oc1=O` below 0.3 µg/mL?
False

Just wondering, is MIC90 of `O=c1cc(-c2ccccc2)c2ccc(Cl)cc2o1` below 0.3 µg/mL?
False

Just wondering, is MIC90 of CN[C@@H]1[C@H](O[C@H]2[C@H](O[C@H]3[C@H](O)[C@@H](O)[C@H](N=C(N)N)[C@@H](O)[C@@H]3N=C(N)N)O[C@@H](C)[C@]2(O)C=O)O[C@@H](CO)[C@H](O)[C@H]1O [STREPTOMYCIN] below 0.3 µg/mL?
False

Just wondering, is MIC90 of NNC(=O)c1ccncc1 [ISONIAZID] below 0.3 µg/mL?
True

====

I'd appreciate it if you could supply MIC90 values for the items below.
- Tested on: Mycobacterium tuberculosis
- TEST SUMMARY: Antimycobacterial activity against cycloserine-resistant Mycobacterium tuberculosis ATCC 35826
- Assay type: functional
Numbers only, in µg/mL.

Please review the following examples before continuing.
O=[N+]([O-])c1cn2c(n1)OC[C@@H](OCc1ccc(OC(F)(F)F)cc1)C2 : 0.18
CCOC(=O)c1c(-c2ccccc2)c2ccc(Cl)cc2oc1=O : 47.3
CN[C@@H]1[C@H](O[C@H]2[C@H](O[C@H]3[C@H](O)[C@@H](O)[C@H](N=C(N)N)[C@@H](O)[C@@H]3N=C(N)N)O[C@@H](C)[C@]2(O)C=O)O[C@@H](CO)[C@H](O)[C@H]1O : 0.53
CO[C@H]1/C=C/O[C@@]2(C)Oc3c(C)c(O)c4c(O)c(c(/C=N/N5CCN(C)CC5)c(O)c4c3C2=O)NC(=O)/C(C)=C\C=C\[C@H](C)[C@H](O)[C@@H](C)[C@@H](O)[C@@H](C)[C@H](OC(C)=O)[C@@H]1C : 0.02
NC[C@H]1O[C@H](O[C@H]2[C@H](O)[C@@H](O[C@H]3O[C@H](CO)[C@@H](O)[C@H](N)[C@H]3O)[C@H](N)C[C@@H]2N)[C@H](O)[C@@H](O)[C@@H]1O : 1.12
NNC(=O)c1ccncc1 : 0.04

Continue with the next compound.
Provide MIC90 value for the following compound: `O=c1cc(-c2ccccc2)c2ccc(Cl)cc2o1`
47.3
